Taken from ChEMBL document CHEMBL1150421.

Test system: Mus musculus
Assay procedure: Analgesic activity in Albino mouse at 50 mg/kg, po assessed as thermal stimuli reaction time change after 30 mins by hot plate method relative to basal level
Format: functional
Strictly below 20% in Activity: MET. Otherwise: NOT MET.

As a guide, the following entries are already answered.
Cc1ccc(-c2c(S(=O)(=O)c3ccccc3)cnc3cc(-c4ccc(Br)cc4)nn23)cc1
NOT MET
Cc1ccc(-c2c(S(=O)(=O)c3ccccc3)cnc3nc4ccccc4n23)cc1
MET
O=S(=O)(c1ccccc1)c1cnc2ncnn2c1-c1ccc(Br)cc1
MET
Cc1ccc(-c2c(S(=O)(=O)c3ccccc3)cnc3ncnn23)cc1
MET

Is the reported Activity for Cc1cc2ncc(S(=O)(=O)c3ccccc3)c(-c3ccc(Br)cc3)n2n1 strictly below 20%?
NOT MET

Below 20% on Activity? Entry Cc1ccc(-c2c(S(=O)(=O)c3ccccc3)cnc3cc(C)nn23)cc1
MET

Does Cc1ccc(-c2cc3ncc(S(=O)(=O)c4ccccc4)c(-c4ccc(C)cc4)n3n2)cc1 have Activity strictly under 20%?
NOT MET

Decide: Activity of O=S(=O)(c1ccccc1)c1cnc2cc(-c3ccc(Cl)cc3)nn2c1-c1ccc(Br)cc1 strictly below 20%?
NOT MET

Consider Cc1ccc(-c2c(S(=O)(=O)c3ccccc3)cnc3cc(-c4ccccc4)nn23)cc1 . Does its Activity lie strictly below 20%?
MET

Consider Cc1ccc(-c2c(S(=O)(=O)c3ccccc3)cnc3c(Br)c(-c4ccccc4)nn23)cc1 . Does its Activity lie strictly below 20%?
NOT MET

Check if Activity falls below 20% for COc1ccc2c(c1)c(CC(=O)O)c(C)n2C(=O)c1ccc(Cl)cc1 .
NOT MET
